These measurements were taken from ChEMBL document CHEMBL2034849.

# TARGET OR TEST SYSTEM: MAP kinase-activated protein kinase 2 (Homo sapiens, UniProt P49137)
# Sequence (P49137 whole entry): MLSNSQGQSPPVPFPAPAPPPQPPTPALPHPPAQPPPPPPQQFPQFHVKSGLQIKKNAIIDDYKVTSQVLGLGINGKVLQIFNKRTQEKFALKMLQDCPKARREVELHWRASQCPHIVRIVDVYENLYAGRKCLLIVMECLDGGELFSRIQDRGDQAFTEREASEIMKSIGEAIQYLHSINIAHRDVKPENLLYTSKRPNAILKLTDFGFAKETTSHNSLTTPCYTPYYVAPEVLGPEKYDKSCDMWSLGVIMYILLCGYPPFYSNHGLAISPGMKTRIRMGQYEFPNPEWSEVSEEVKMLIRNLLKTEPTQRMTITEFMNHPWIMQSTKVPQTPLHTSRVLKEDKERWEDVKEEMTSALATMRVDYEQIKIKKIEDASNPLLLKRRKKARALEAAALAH
# METHOD NOTES: Inhibition of MK2 using 5TAMRA-KKLNRTLSVA-COOH as substrate incubated for 30 mins prior to substrate addition measured after 30 mins by immobilized metal ion affinity-based fluorescence polarization assay in presence of 100 uM ATP
pIC50: −log10 of the molar value.
RESULT TYPE: pIC50

> print(dat)
                                   molecule                     target.or.test.system  result.type  limit.qualifier  result.value
1  CNC(=O)c1ccc(-c2ccc(C3=NOC(c4ccccc4-c4cncnc4)N3c3ccc(N4CCNCC4)cc3)o2)cc1 (centres undefined)  MAP kinase-activated protein kinase 2 (Homo sapiens, UniProt P49137)        pIC50                <          5.00
2  Fc1ccc(C2ON=C(c3ccc(-c4ccc(Cl)cc4)o3)N2c2ccc(N3CCNCC3)cc2)c(F)c1 (centres undefined)  MAP kinase-activated protein kinase 2 (Homo sapiens, UniProt P49137)        pIC50                =          7.00
3  Clc1ccc(-c2ccc(C3=NOC(c4ccccc4-c4cncnc4)N3c3ccc(N4CCNCC4)cc3)o2)cc1Cl (centres undefined)  MAP kinase-activated protein kinase 2 (Homo sapiens, UniProt P49137)        pIC50                =          6.01
4  Clc1cccc(-c2ccc(C3=NOC(c4ccccc4-c4cncnc4)N3c3ccc(N4CCNCC4)cc3)o2)c1 (centres undefined)  MAP kinase-activated protein kinase 2 (Homo sapiens, UniProt P49137)        pIC50                =          5.89
